# System Tested: human recombinant serotonin (5-Hydroxytryptamine) 5-HT6 receptor (Homo sapiens, UniProt P50406)
# Construct: expressed in transfected cells; host or cells: human HeLa cells
# Sequence (P50406 whole entry): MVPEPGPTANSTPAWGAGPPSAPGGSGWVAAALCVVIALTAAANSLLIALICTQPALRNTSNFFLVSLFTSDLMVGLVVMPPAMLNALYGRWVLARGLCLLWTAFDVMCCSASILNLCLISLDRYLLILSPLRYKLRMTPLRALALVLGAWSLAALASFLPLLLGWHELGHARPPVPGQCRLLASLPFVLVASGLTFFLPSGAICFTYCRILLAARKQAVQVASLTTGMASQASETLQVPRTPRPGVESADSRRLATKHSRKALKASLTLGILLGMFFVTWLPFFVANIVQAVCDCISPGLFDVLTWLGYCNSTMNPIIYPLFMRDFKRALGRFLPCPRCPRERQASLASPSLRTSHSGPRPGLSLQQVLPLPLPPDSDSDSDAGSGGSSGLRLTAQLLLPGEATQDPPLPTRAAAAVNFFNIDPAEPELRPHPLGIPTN
# Assay Explanation: Serotonin 5-HT6 radioligand binding ([3H]LSD)
# Run Parameters: 2 h; read-out: Percent Inhibition of ligand binding Serotonin (1 μM ligand concentration) 5-HT6
Property: inhibition at 1 µM

Known results for molecules:
* CN1CCc2c(n(CC(=O)N3CCCC3)c3ccc(Cl)cc23)C1 | 6%
* CCC1c2c(c3cc(Cl)ccc3n2/C=C(\C)c2ccc(F)c(F)c2)CCN1C (stereo not shown) | 61%
* C/C(=C\n1c2c(c3cc(Cl)ccc31)CCN(C)C2)c1ccc(Cl)c(Cl)c1 | 42%

# next molecule below
Read the entry CCC1c2c(c3cc(Cl)ccc3n2/C=C(\C)c2ccc(Cl)c(Cl)c2)CCN1C (stereo not shown) and write its reported inhibition at 1 µM.
38%

FYI, the data here is from patent US9260429B2.
